assay: Drug repurposing screens with cells derived from glioblastoma tumor samples (AID 1345199); conditions: GBM patient neurospheres viability, ATP luminescence, 48 h; tumour line A; further: potency means the concentration at half of the fitted maximal effect; nearly all actives have a fitted effect of over 40% in size
Inconclusive results are not listed. Calls of active or inactive are those of the source. The call rests on the fitted dose curve; in most records, active means well fitted inhibition curve with a large enough effect; inconclusive means small, poorly fitted or top-dose-only effect; inactive means flat fitted curve, though single readings scatter.
Listed here are compounds together with their documented Potency.

Example entries and their recorded answers appear below.
compound	val
Clc1ccc(C(Cn2ccnc2)OCc2csc3c(Cl)cccc23)c(Cl)c1 (stereo unspecified)	12.6 µM (active)
O=[N+]([O-])c1cc(I)c(O)c(I)c1	25.1 µM (active)
O=C1C2CC=CCC2C(=O)N1SC(Cl)(Cl)Cl (stereo unspecified)	7.08 µM (active)
O=[N+]([O-])C(Br)(CO)CO	35.5 µM (active)
CCON=O	0.224 µM (active)

We next turn to a different compound, shown below.
Problem: Note down Potency recorded for `CC(=O)O[C@H]1CC[C@@]2(C)C(=CC[C@@H]3[C@@H]2CC[C@]2(C)C(=O)CC[C@@H]32)C1`
Solution: 7.94 µM (active)
